Origin of the recorded values: patent US10087166B2

- System name: P70S6K (Homo sapiens, UniProt P23443, T412E)
- Sequence (P23443 whole entry T412E): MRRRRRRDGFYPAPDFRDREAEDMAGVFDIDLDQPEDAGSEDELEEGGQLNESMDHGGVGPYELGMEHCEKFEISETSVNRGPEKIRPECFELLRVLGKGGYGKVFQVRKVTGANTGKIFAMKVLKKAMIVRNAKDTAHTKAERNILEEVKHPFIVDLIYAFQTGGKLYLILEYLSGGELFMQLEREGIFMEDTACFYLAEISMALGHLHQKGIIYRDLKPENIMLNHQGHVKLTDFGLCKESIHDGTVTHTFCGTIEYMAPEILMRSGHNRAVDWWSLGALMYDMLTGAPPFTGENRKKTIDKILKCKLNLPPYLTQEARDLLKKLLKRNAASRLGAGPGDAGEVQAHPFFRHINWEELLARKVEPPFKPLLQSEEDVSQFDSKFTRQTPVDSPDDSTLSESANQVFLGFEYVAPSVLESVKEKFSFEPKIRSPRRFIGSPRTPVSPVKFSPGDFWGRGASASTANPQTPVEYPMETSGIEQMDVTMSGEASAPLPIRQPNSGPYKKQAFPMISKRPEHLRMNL
- Protocol details: P70S6K enzyme assay
- Study conditions: P70S6K T412E mutant 3 nM, 24 μM ATP, FITC-AHA-AKRRRLSSLRA-OH substrate, 90 min at 25° C.; read-out: IC50p70S6K
pIC50: −log10 of the molar value.
Measurement name: pIC50

> print(dat)
                                    molecule  measured
 1  NC(=O)c1cccc2c(N[C@H]3CNC[C@@H]3c3ccc(C(F)(F)F)cc3)ncnc12 (racemic) [compound 52]      8.19
 2  NC(=O)c1cccc2c(N[C@@H]3CNCC[C@H]3c3ccc(F)cc3)ncnc12 (racemic)      8.49
 3  Cc1nc(N[C@@H]2CNCC[C@H]2c2cccc(F)c2)c2cccc(C(N)=O)c2n1 (racemic)      8.60
 4  NC(=O)c1cccc2c(N[C@@H]3CNC[C@H]3c3cccc(F)c3)ncnc12      8.81
 5  CCc1nc(N[C@@H]2CNCC[C@H]2c2ccc(F)cc2)c2cccc(C(N)=O)c2n1 (racemic)      8.44
 6  Cc1nc(NC2CNCC2c2ccccc2)c2cccc(C(N)=O)c2n1 (racemic)      8.22
 7  NC(=O)c1cccc2c(N[C@@H]3CNCC[C@H]3c3cccc(F)c3)ncnc12 (racemic)      8.74
 8  NC(=O)c1cccc2c(N[C@@H]3CNC[C@H]3c3cccc(Cl)c3F)ncnc12 (racemic)      8.68
 9  Cc1nc(N[C@@H]2CNCC[C@H]2c2ccc(F)cc2)c2cccc(C(N)=O)c2n1 (racemic) [compound 134]      8.38
10  NC(=O)c1cccc2c(NC3CNCC3c3c(F)cccc3Cl)ncnc12 (racemic)      8.15
11  Cc1nc(N[C@@H]2CNCC[C@H]2c2cccc(C(F)(F)F)c2)c2cccc(C(N)=O)c2n1 (racemic)      8.57
12  NC(=O)c1cccc2c(N[C@@H]3CNCC[C@H]3c3cccc(C(F)(F)F)c3)ncnc12 [compound 131]      6.80
13  NC(=O)c1cccc2c(N[C@H]3CNCC[C@@H]3c3cccc(C(F)(F)F)c3)ncnc12      8.92
14  NC(=O)c1cccc2c(N[C@@H]3CNC[C@H]3c3cccc4ccccc34)ncnc12      8.92
15  NC(=O)c1cccc2c(N[C@H]3CNC[C@@H]3c3ccccc3Cl)ncnc12      6.47
16  NC(=O)c1cccc2c(N[C@H]3CNC[C@@H]3c3ccc(OC(F)(F)F)cc3)ncnc12 (racemic) [compound 59]      8.77
17  NC(=O)c1cccc2c(N[C@@H]3CNC[C@H]3c3cccc(C(F)(F)F)c3)ncnc12      7.22
18  NC(=O)c1cccc2c(NC3CNCC3c3cccc(Cl)c3)ncnc12 (racemic)      8.89
19  NC(=O)c1cccc2c(N[C@@H]3CNCC[C@H]3c3cc(F)cc(F)c3)ncnc12 (racemic)      8.64
20  Cc1cc(C(N)=O)c2ncnc(NC3CNCC3c3ccccc3)c2c1 (racemic)      6.46
21  COc1ccc([C@H]2CNC[C@@H]2Nc2ncnc3c(C(N)=O)cccc23)cc1      7.09
22  COc1cccc([C@@H]2CNC[C@H]2Nc2ncnc3c(C(N)=O)cccc23)c1      8.19
23  COc1ccccc1C1CNCC1Nc1ccnc2c(C(N)=O)cccc12 (stereo not shown)      7.34
24  NC(=O)c1cccc2c(N[C@H]3CNC[C@@H]3c3cc(F)cc(Cl)c3)ncnc12 (racemic)      8.82
25  COc1ccc(C2CNCC2Nc2nc(C)nc3c(C(N)=O)cccc23)cc1 (stereo not shown)      8.74
26  Cc1c(F)cccc1[C@H]1CNC[C@@H]1Nc1ncnc2c(C(N)=O)cccc12 (racemic) [compound 92]      8.70
27  NC(=O)c1cccc2c(N[C@@H]3CNCC[C@H]3c3ccc(C(F)(F)F)cc3)ncnc12 [compound 128]      6.64
28  COc1cccc([C@H]2CNC[C@@H]2Nc2ncnc3c(C(N)=O)cccc23)c1      6.44
29  CN1CC[C@@H](c2ccccc2)[C@H](Nc2ncnc3c(C(N)=O)cccc23)C1 (racemic)      7.66
30  Cc1nc(N[C@H]2CNC[C@@H]2c2ccccc2Cl)c2cccc(C(N)=O)c2n1 (racemic)      8.57
31  N#Cc1cccc([C@@H]2CNC[C@@H]2Nc2ncnc3c(C(N)=O)cccc23)c1 (racemic)      7.85

###

- System name: P70S6K (Homo sapiens, UniProt P23443, T412E)
- Protocol details: P70S6K enzyme assay
- Study conditions: P70S6K T412E mutant 3 nM, 24 μM ATP, FITC-AHA-AKRRRLSSLRA-OH substrate, 90 min at 25° C.; read-out: IC50p70S6K
Measurement name: IC50

> print(dat)
                                   compound  measured
1  NC(=O)c1cccc2c(N[C@@H]3CNC[C@H]3c3ccc4c(c3)CCO4)ncnc12 [compound 91]     53 nM
2  NC(=O)c1cccc2c(N[C@H]3CNC[C@@H]3c3cccc(F)c3)ncnc12 (racemic) [compound 2]      3 nM
3  NC(=O)c1cccc2c(N[C@H]3CNC[C@@H]3c3cccc(Cl)c3)ncnc12 [compound 95]     48 nM

###

Recorded IC50 values for a group of compounds are listed next.
- System name: P70S6K (Homo sapiens, UniProt P23443, T412E)
- Protocol details: P70S6K enzyme assay
- Study conditions: P70S6K T412E mutant 3 nM, 24 μM ATP, FITC-AHA-AKRRRLSSLRA-OH substrate, 90 min at 25° C.; read-out: IC50p70S6K
Measurement name: IC50

> print(dat)
                                   compound  measured
1  NC(=O)c1cccc2c(N[C@@H]3CNC[C@H]3c3cc(F)c(F)cc3F)ncnc12    2.8 nM
2  NC(=O)c1cccc2c(N[C@H]3CNC[C@@H]3c3ccc4ccccc4c3)ncnc12 (racemic) [compound 110]   1.54 nM
3  NC(=O)c1cccc2c(N[C@H]3CNC[C@@H]3c3cccc(C(F)(F)F)c3)ncnc12 (racemic) [compound 48]    1.7 nM
